Experiment: Pharmacokinetic data in rat after single oral administration
Type: in vivo
Settings: in vivo; analyte = the administered compound itself; single oral dose (No. 12 31.2, No. 43 32.8, No. 446 34.8, No. 449 25, XIII 21.2, No. 54 27 mg/kg); fasted female Sprague Dawley rat
READOUT: AUC(0-t) (ng·h/mL)
Form entry: value (ng·h/mL) — number only.

Q) AUC(0-t) lookup needed for NCC(=O)Nc1ccc(/N=N/c2ccccc2OC(=O)N2CCOCC2)c(N)n1 , thanks.
A) 151
